Counter-ions that a name gives are not always drawn.
Readout label: melting point (°C)
Please respond with the number in °C and leave the unit unwritten.

[
  {
    "Molecule": "CN(c1nnc(C(F)(F)F)s1)C1CCN(Cc2ccc(F)cc2)CC1",
    "Quantitative readout": 85.8
  },
  {
    "Molecule": "FC(F)(F)Oc1cccc(CN2CCC(Nc3nnc(C(F)(F)F)s3)CC2)c1",
    "Quantitative readout": 116.3
  },
  {
    "Molecule": "Fc1ccc(CN2CCC(Nc3nc(C(F)(F)F)cs3)CC2)cc1F (as salt: hydrochloride)",
    "Quantitative readout": 238
  },
  {
    "Molecule": "CN(c1nnc(C(F)(F)F)s1)C1CCN(Cc2cccc(F)c2)CC1",
    "Quantitative readout": 80.5
  },
  {
    "Molecule": "N#Cc1nnc(NC2CCN(Cc3cc(F)c(F)c(F)c3)CC2)s1",
    "Quantitative readout": 211.3
  },
  {
    "Molecule": "Fc1cc(CN2CCC(Nc3nnc(C(F)(F)F)s3)CC2)ccc1C(F)(F)F",
    "Quantitative readout": 130.2
  }
]

Moving on to another molecule below.
// field: melting point; key: N#Cc1nnc(NC2CCN(Cc3ccc(F)c(F)c3)CC2)s1 ; value = 199.4

Sourced from patent US8933101B2
